molecular target: PD-1-Ig binding to PD-L1-TVMV-His (PD-L1-His) (Homo sapiens, UniProt Q9NZQ7); construct: hPDL1(19-239)-TVMV-His; made in house; host or cells: HEK293T cells; test: PD-1/PD-L1 Homogenous Time-Resolved Fluorescence (HTRF) binding assay; settings: PD-1-Ig (20 nM) / PD-L1-His (10 nM); range classes
Sequence (Q9NZQ7 with tags, fused parts or gaps): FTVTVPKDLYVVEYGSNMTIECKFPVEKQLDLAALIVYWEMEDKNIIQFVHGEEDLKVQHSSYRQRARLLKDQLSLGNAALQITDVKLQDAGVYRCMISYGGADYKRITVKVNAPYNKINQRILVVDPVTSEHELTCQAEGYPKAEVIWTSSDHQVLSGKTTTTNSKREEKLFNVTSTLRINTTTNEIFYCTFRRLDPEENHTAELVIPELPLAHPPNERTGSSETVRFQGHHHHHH
Positions of bridges follow the written chain, without caps; N, C: chain ends. Non-standard residues stand in square brackets, D forms with d. Residues, ends and D or L forms follow the SMILES beside them. Trp(1-CH2COOH) = N[C@@H](Cc1cn(CC(=O)O)c2ccccc12)C(=O)O; Phe(4-Me) = Cc1ccc(C[C@H](N)C(=O)O)cc1; Hyp = O=C(O)[C@@H]1C[C@@H](O)CN1; NMeNle = CCCC[C@H](NC)C(=O)O; Pip = O=C(O)[C@@H]1CCCCN1; Orn = NCCC[C@H](N)C(=O)O; Dab = NCC[C@H](N)C(=O)O; Dap = NC[C@H](N)C(=O)O; Ava = NCCCCC(=O)O
Kindly supply the reported IC50 values for the records listed here.

[ask] Any idea what IC50 was measured for CCCC[C@H]1C(=O)N(C)[C@@H](CCCC)C(=O)NC(CC(C)C)C(=O)N[C@H](C(=O)NCC(N)=O)CNCC(=O)N[C@@H](Cc2ccc(O)cc2)C(=O)N(C)[C@@H](C)C(=O)N[C@@H](CC(N)=O)C(=O)N2CCC[C@H]2C(=O)N[C@@H](CN)C(=O)N[C@@H](CC(C)C)C(=O)N2C[C@H](O)C[C@H]2C(=O)N[C@@H](Cc2c[nH]c3ccccc23)C(=O)N[C@@H](CCN)C(=O)N[C@@H](Cc2c[nH]c3ccccc23)C(=O)N1C (stereo partly shown) ?
[reply] 10 to 99 nM

[ask] Next record, please: CCCC[C@H]1C(=O)N(C)[C@@H](CCCC)C(=O)N[C@@H](CC(C)C)C(=O)NCCC[C@H](N)C(=O)N[C@@H](Cc2ccc(O)cc2)C(=O)N2CCCC[C@H]2C(=O)N[C@@H](CC(N)=O)C(=O)N2CCC[C@H]2C(=O)N[C@@H](CN)C(=O)N[C@@H](CC(C)C)C(=O)N2CCC[C@H]2C(=O)N[C@@H](Cc2c[nH]c3ccccc23)C(=O)N[C@@H](CCN)C(=O)N[C@@H](Cc2cn(CC(=O)O)c3ccccc23)C(=O)N1C [Example 10511] (H-[Orn]Y[Pip]NP[Dap]LPW[Dab][Trp(1-CH2COOH)][NMeNle][NMeNle]L; lactam 1-C)
[reply] 100 to 10000 nM

[ask] Now the molecule CCCC[C@H]1C(=O)N(C)[C@@H](CCCC)C(=O)N[C@@H](CC(C)C)C(=O)N[C@H](C(N)=O)CNCC(=O)N[C@@H](Cc2ccc(O)cc2)C(=O)N2CCCC[C@H]2C(=O)N[C@@H](CC(N)=O)C(=O)N2CCC[C@H]2C(=O)N[C@@H](CCC(N)=O)C(=O)N[C@@H](CCC(=O)O)C(=O)N2C[C@H](O)C[C@H]2C(=O)N[C@@H](Cc2c[nH]c3ccccc23)C(=O)N[C@@H](CC(N)=O)C(=O)N[C@@H](Cc2cn(CC(=O)O)c3ccccc23)C(=O)N1C
[reply] 1 to 9.9 nM

[ask] Now the same for CCCC[C@H]1C(=O)N(C)[C@@H](CCCC)C(=O)N[C@@H](CC(C)C)C(=O)NCCCCC(=O)N[C@@H](Cc2ccc(C)cc2)C(=O)N2CCCC[C@H]2C(=O)N[C@@H](CC(N)=O)C(=O)N2CCC[C@H]2C(=O)N[C@@H](CN)C(=O)N[C@@H](CC(C)C)C(=O)N2C[C@H](O)C[C@H]2C(=O)N[C@@H](Cc2c[nH]c3ccccc23)C(=O)N[C@@H](CCN)C(=O)N[C@@H](Cc2cn(CC(=O)O)c3ccccc23)C(=O)N1C [Example 10540] (cyclo([Ava][Phe(4-Me)][Pip]NP[Dap]L[Hyp]W[Dab][Trp(1-CH2COOH)][NMeNle][NMeNle]L))
[reply] 1 to 9.9 nM

----------
For each entry below, report its pIC50 value.
biological target: PD-1-Ig binding to PD-L1-TVMV-His (PD-L1-His) (Homo sapiens); construct: hPDL1(19-239)-TVMV-His; made in house; host or cells: HEK293T cells; assay: PD-1/PD-L1 Homogenous Time-Resolved Fluorescence (HTRF) binding assay; conditions: PD-1-Ig (20 nM) / PD-L1-His (10 nM); range classes
pIC50: −log10 of the molar value. Non-standard residues stand in square brackets, D forms with d. Residues, ends and D or L forms follow the SMILES beside them. Trp(1-CH2COOH) = N[C@@H](Cc1cn(CC(=O)O)c2ccccc12)C(=O)O; Phe(4-F) = N[C@@H](Cc1ccc(F)cc1)C(=O)O; Hyp = O=C(O)[C@@H]1C[C@@H](O)CN1; NMeNle = CCCC[C@H](NC)C(=O)O; Pip = O=C(O)[C@@H]1CCCCN1; NMeA = CN[C@@H](C)C(=O)O; Dab = NCC[C@H](N)C(=O)O; Dap = NC[C@H](N)C(=O)O; AEA = NCCOCC(=O)O; Ava = NCCCCC(=O)O; Sar = CNCC(=O)O

[ask] For the compound CCCC[C@H]1C(=O)N(C)[C@@H](CCCC)C(=O)N[C@@H](CC(C)C)C(=O)N[C@H](C(=O)NCC(N)=O)CNCC(=O)N[C@@H](Cc2ccc(O)cc2)C(=O)N(C)[C@@H](C)C(=O)N[C@@H](CC(=O)O)C(=O)N2CCC[C@H]2C(=O)N[C@@H](CCC(N)=O)C(=O)N[C@@H](CC(=O)O)C(=O)N2C[C@H](O)C[C@H]2C(=O)N[C@@H](Cc2c[nH]c3ccccc23)C(=O)N[C@@H](CC(N)=O)C(=O)N[C@@H](Cc2cn(CC(=O)O)c3ccccc23)C(=O)N1C , what pIC50 is on record?
[reply] 7.00 to 8.00

[ask] Subsequent entry: CCCC[C@H]1C(=O)N(C)[C@@H](CCCC)C(=O)N[C@@H](CC(C)C)C(=O)N(C)CC(=O)NCC(=O)N[C@@H](Cc2ccc(O)cc2)C(=O)N(C)[C@@H](C)C(=O)N[C@@H](CC(N)=O)C(=O)N2CCC[C@H]2C(=O)N[C@@H](CN)C(=O)N[C@@H](CC(C)C)C(=O)N2C[C@H](O)C[C@H]2C(=O)N[C@@H](Cc2c[nH]c3ccccc23)C(=O)N[C@@H](CCN)C(=O)N[C@@H](Cc2c[nH]c3ccccc23)C(=O)N1C [Example 5009] (cyclo([Dab]W[NMeNle][NMeNle]L[Sar]GY[NMeA]NP[Dap]L[Hyp]W))
[reply] 8.00 to 9.00

[ask] What about CCCC[C@H]1C(=O)N(C)[C@@H](CCCC)C(=O)N[C@@H](CC(C)C)C(=O)N[C@H](C(=O)NCC(N)=O)CNCC(=O)N[C@@H](Cc2ccc(O)cc2)C(=O)N(C)[C@@H](C)C(=O)N[C@@H](CC(N)=O)C(=O)N2CCC[C@H]2C(=O)N[C@@H](Cc2cnc[nH]2)C(=O)N[C@@H](CCC(N)=O)C(=O)N2C[C@H](O)C[C@H]2C(=O)N[C@@H](Cc2c[nH]c3ccccc23)C(=O)N[C@@H](CO)C(=O)N[C@@H](Cc2cn(CC(=O)O)c3ccccc23)C(=O)N1C ?
[reply] 8.00 to 9.00

[ask] Here is the next compound: CCCC[C@H]1C(=O)N(C)[C@@H](CCCC)C(=O)N[C@@H](CC(C)C)C(=O)N[C@H](C(N)=O)CNCC(=O)N[C@@H](Cc2ccc(O)cc2)C(=O)N2CCCC[C@H]2C(=O)N[C@@H](CC(N)=O)C(=O)N2CCC[C@H]2C(=O)N[C@@H](CN)C(=O)N[C@@H](CC(C)C)C(=O)N2C[C@H](O)C[C@H]2C(=O)N[C@@H](Cc2c[nH]c3ccccc23)C(=O)N[C@@H](CCN)C(=O)N[C@@H](Cc2cn(CC(=O)O)c3ccccc23)C(=O)N1C
[reply] 8.00 to 9.00

[ask] Follow-up entry: CCCC[C@H]1C(=O)N(C)[C@@H](CCCC)C(=O)N[C@@H](CC(C)C)C(=O)NCCOCC(=O)N[C@@H](Cc2ccc(O)cc2)C(=O)N(C)[C@@H](C)C(=O)N[C@@H](CC(N)=O)C(=O)N2CCC[C@H]2C(=O)N[C@@H](CN)C(=O)N[C@@H](CC(C)C)C(=O)N2C[C@H](O)C[C@H]2C(=O)N[C@@H](Cc2c[nH]c3ccccc23)C(=O)N[C@@H](CCN)C(=O)N[C@@H](Cc2c[nH]c3ccccc23)C(=O)N1C [Example 10501] (cyclo([AEA]Y[NMeA]NP[Dap]L[Hyp]W[Dab]W[NMeNle][NMeNle]L))
[reply] 8.00 to 9.00

[ask] Also CCCC[C@H]1C(=O)N(C)[C@@H](CCCC)C(=O)N[C@@H](CC(C)C)C(=O)N[C@H](C(=O)NCC(N)=O)CNCC(=O)N[C@@H](Cc2ccc(O)cc2)C(=O)N(C)[C@@H](C)C(=O)N[C@@H](CC(N)=O)C(=O)N2CCC[C@H]2C(=O)N[C@@H](Cc2cnc[nH]2)C(=O)N[C@@H](CCC(N)=O)C(=O)N2C[C@H](O)C[C@H]2C(=O)N[C@@H](Cc2c[nH]c3ccccc23)C(=O)NCC(=O)N[C@@H](Cc2cn(CC(=O)O)c3ccccc23)C(=O)N1C ?
[reply] 7.00 to 8.00

[ask] Also CCCC[C@H]1C(=O)N(C)[C@@H](CCCC)C(=O)N[C@@H](CC(C)C)C(=O)NCCCCC(=O)N[C@@H](Cc2ccc(F)cc2)C(=O)N2CCCC[C@H]2C(=O)N[C@@H](CC(N)=O)C(=O)N2CCC[C@H]2C(=O)N[C@@H](CN)C(=O)N[C@@H](CC(C)C)C(=O)N2C[C@H](O)C[C@H]2C(=O)N[C@@H](Cc2c[nH]c3ccccc23)C(=O)N[C@@H](CCN)C(=O)N[C@@H](Cc2cn(CC(=O)O)c3ccccc23)C(=O)N1C [Example 10536] (cyclo([Ava][Phe(4-F)][Pip]NP[Dap]L[Hyp]W[Dab][Trp(1-CH2COOH)][NMeNle][NMeNle]L)) ?
[reply] 8.00 to 9.00

[ask] Proceed to CCCC[C@H]1C(=O)N(C)[C@@H](CCCC)C(=O)N[C@@H](C)C(=O)N[C@H](C(=O)NCC(N)=O)CCNCC(=O)N[C@@H](Cc2ccc(O)cc2)C(=O)N(C)[C@@H](C)C(=O)N[C@@H](CC(=O)O)C(=O)N2CCC[C@H]2C(=O)N[C@@H](Cc2cnc[nH]2)C(=O)N[C@@H](CCC(N)=O)C(=O)N2C[C@H](O)C[C@H]2C(=O)N[C@@H](Cc2c[nH]c3ccccc23)C(=O)N[C@@H](CO)C(=O)N[C@@H](Cc2cn(CC(=O)O)c3ccccc23)C(=O)N1C
[reply] 8.00 to 9.00

[ask] Now give it for CCCC[C@H]1C(=O)N(C)[C@@H](CCCC)C(=O)N[C@@H](CC(C)C)C(=O)N[C@H](C(=O)NCC(N)=O)CCCNCC(=O)N[C@@H](Cc2ccccc2)C(=O)N(C)[C@@H](C)C(=O)N[C@@H](CC(C)C)C(=O)N2CCC[C@H]2C(=O)N[C@@H](CC(C)C)C(=O)N[C@@H](CC(C)C)C(=O)N2CCC[C@H]2C(=O)N[C@@H](Cc2c[nH]c3ccccc23)C(=O)N[C@@H](CC(C)C)C(=O)N[C@@H](Cc2c[nH]c3ccccc23)C(=O)N1C too.
[reply] 5.00 to 7.00
